Values were extracted from the NTF2 design screens of Basanta et al. (2020).

- RUN_DESCRIPTION: protease stability score; higher = more stable; yeast display proteolysis, trypsin and chymotrypsin;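 note: relative to predicted unfolded state with 0 unfolded-like and 1 meaning tenfold more protease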
protease stability score: recorded values
Reply with just the number.

Please review the following examples before continuing.
POLYMER_SEQUENCE: TEDDEILREALEIWRYVEQTGDEEDTHRMVDPHAKMIFNGKEIHGREHISRWMKEIRIHELRVHSFRVIDGRLILEVELVGRFNGREDTIEVEIISEKVDGRWVVSSLTIR
protease stability score: 1.29

POLYMER_SEQUENCE: DEKEELSKRAFERMLHWLETGDFDKFERYADPNVKTVIGDKYFIGRERVSRTVLHWLEVLGVDHRHVEDSDVHTFENHAVMDLHTRVHVDGQDREIRFILLVTKVNGRWNVTSIKIEIR
protease stability score: 0.661

POLYMER_SEQUENCE: DDHEKLSEEHMRFIRHAIKTGDEETLKELADPDMRINVNGRLFHGWEHFFKIWEHIRRHLRFKDYDIHDFEIYGDKIHADTRVKSRVNGVERIITTEVLIMKVDGRWYNHEVRLH
protease stability score: 0.71

POLYMER_SEQUENCE: SEVEEDTKRVLELLRESWKTGDEHSIKEMLDPNVKILVGDKEFHGMEDWHRIYKRFDYISIRHVRLKDSRHINGVVYLIIHIESEYRIGDKTTEKRYDASIINEKVDGRWIIRSIEIH
protease stability score: 1.91

POLYMER_SEQUENCE: TEEEEEFHRMFELEVRAWRTGDEETIRRLFDPHARIDFNGRDVIGRDEFIKRFQELGVEVHDLKIHNFRIVGDKVHWDIRLDGTFNGKRTKLEIHLYAEKYDGQWFNKTEYYI
protease stability score: 1.36

// moving on: another record for protease stability score
Problem: Find the recorded protease stability score belonging to DKTEEDAKRWAEHFSHNMETGNEEKIIDLADPNTRLEVNGRHVHGREEFSRFWKELSDRVDHIRIQITRISIIGDKIRIDSRIFLHINGKEMIVESVLISEKVNGRWMMREIDIR and report it.
Solution: 1.84
